# System: OVCAR-8
# PROTOCOL_SUMMARY: NCI tumour cell line growth inhibition, 48 h
The source made the active and inactive calls. Cut-off read from the data, not from the text of the source: active = GI50 up to about 1.1 µM and inactive = higher.
Just give me one of these, please: true (1) for active, false (0) for inactive

Ask: Hey, what did the test say about CCOC(=O)C(NC(=O)c1cccc(Cl)c1)(Nc1ccc(S(=O)(=O)Nc2cc(C)nc(C)n2)cc1)C(F)(F)F (stereo unspecified) ?
Reply: false (0)

Ask: Hey, what did the test say about C=C(c1ccc2[nH]c(NC(=O)OC)nc2c1)c1cccs1 ?
Reply: true (1)

Ask: Hey, what did the test say about CSc1nc(SC)c2ncn(C3CC(Oc4ccc(C)cc4)C(COc4ccc(C)cc4)O3)c2n1 (stereo unspecified) ?
Reply: false (0)

Ask: Hey, what did the test say about O=C1c2ccccc2C(=O)N1CCc1ncc[nH]1 ?
Reply: false (0)

Ask: Hey, what did the test say about O=C(O)c1cccc(OCCO)c1 ?
Reply: false (0)

Ask: Hey, what did the test say about CCCCn1c2ccccc2c2ccc3c(c21)C(=O)C=CC3=O ?
Reply: false (0)
